Recorded Barnyardgrass plant response rating, one value per entry.
- System: barnyardgrass
- Experimental Protocol: Test C pre-/postemergence herbicide test
- Format: in vivo, Echinochloa crus-galli
- Setup Conditions: Preemergence, 31 g ai/ha; scale 0 to 100, 0 is no effect and 100 is complete control

Below: 4 compounds and their reported Barnyardgrass plant response rating.
>>> print(df.to_string())
                                   compound  value_observed
0  O=C1NC[C@H](c2cccc(C(F)(F)F)c2)[C@H]1C(=O)Nc1cccc(F)c1F              90
1  CC(C)c1cccc(C2CNC(=O)C2C(=O)Nc2ccccc2F)c1 (centres unmarked)              80
2  O=C1NCC(c2ccc(C(F)(F)F)cc2)C1C(=O)Nc1cccc(F)c1F (racemic)              90
3  O=C1NCC(c2cccc(Br)c2)C1C(=O)Nc1ccc(F)c(F)c1F (centres unmarked)              50

--- query ---
Reported Barnyardgrass plant response rating of O=C1NCC(c2ccc(F)c(F)c2)C1C(=O)Nc1cccc(F)c1F (racemic) : 90
